- Tested on: U251 CNS
- procedure_summary: NCI tumour cell line growth inhibition, 48 h
assay_readout: TGI

Provide one value: measured TGI of COc1cc(Nc2nccc(-c3cnn4ncccc34)n2)cc(OC)c1
2.46 µM

Please supply the value of reported TGI for the item OCC1C2C=CC(O2)[C@H]1CO (stereo partly specified)
> 100 µM

Give the reported TGI for this compound. CC1(C)OC(=O)C(c2ccsc2)C(=O)O1
> 100 µM

Please indicate TGI recorded for CC1(C)C(=O)C2(N)CCC1C2 (stereo unspecified)
> 100 µM

Return the recorded TGI value; entry: CC1(C)C/C=C\CCC(O)C(O)CCC(C)(C)C1=O (stereo unspecified)
> 100 µM

Give me measured TGI, please, for this compound: ClC1(Cl)C2CCOC21n1cnc2ccccc21 (stereo unspecified)
> 100 µM

Please supply the value of reported TGI for the item CC(=O)NC1C(OCc2ccccc2)OC(COC(=O)CCCCCCCCCCNC(=O)CCNc2ccc([N+](=O)[O-])c3[nH]c4ccc(O)cc4c(=O)c23)C(O)C1OC(C)C(=O)N[C@H](C(=O)N[C@H](CCC(=O)O)C(N)=O)C(C)C (stereo partly specified)
> 100 µM

Could you please provide reported TGI for COc1ccc(-c2nc3ccccc3c(=O)[nH]2)cc1OC ? Thanks!
80.5 µM

Check the records and state TGI for Cc1nc2ccccc2n1Cc1ccc(NC(=S)NC2CCCCC2)cc1
> 100 µM

Return TGI (reported value) for this compound: CCCCCCCCCCCCCCCc1nc(SCC(=O)O)n[nH]1
81.2 µM

Provide one value: measured TGI of COc1ccc(OC)c2c1-c1nnnn1CCC2(C)C
> 100 µM

###

- Tested on: K-562 leukemia
- procedure_summary: NCI tumour cell line growth inhibition, 48 h
Can you tell me TGI for the items I'm about to list?

Read the entry CC(C)N=C(NC#N)NS(=O)(=O)c1cnccc1NC1CCCCCCC1 and write its reported TGI.
> 100 µM

State its TGI: [B]C(=O)NC(CC(C)C)C(=O)NC1c2ccsc2C(=O)C1O (configuration not stated) (tested in a mixture with another compound)
> 100 µM

Please give the documented TGI of CC1(C)CC(=O)C(/C=N/c2nc(-c3cccc([N+](=O)[O-])c3)cs2)=C(O)C1
52.6 µM

Please look at this compound and report its TGI: Cc1nc(N(C)C)nc(-c2cccc(-c3ccn(CCN(C)C)n3)c2)c1C
> 20 µM

Determine from records and report TGI for COC(=O)c1cccc(COc2ccc([N+](=O)[O-])cc2Cl)c1
> 100 µM

Using known records, supply TGI for CCCCCC(=O)OC[n+]1ccc(-c2c(COC(=O)NC(C)C)c(COC(=O)NC(C)C)c3n2CCC3)cc1
> 100 µM

Kindly indicate its recorded TGI. Item: O=C1OC(/C=C/c2ccccc2)C(=O)C1=O (configuration not stated)
> 100 µM

###

- Tested on: RXF 393 renal
- procedure_summary: NCI tumour cell line growth inhibition, 48 h
I'd appreciate it if you could supply TGI values for the items below.

Name the recorded TGI of the item Cc1csc(CP(=O)(OC(C)C)OC(C)C)n1 in your answer.
> 100 µM

// fetch TGI given entry COc1ccc(/C=C/c2cnnc3ccccc23)cc1OC
> 10 µM

Look up and report measured TGI for this entry: O=C1CCC(=O)C12CCc1ccccc12
> 100 µM

Look up and state reported TGI for CC(C)[Si](CC1=CCCCC12C(=O)N(COCC[Si](C)(C)C)c1ccccc12)(C(C)C)C(C)C (centres undefined)
54.2 µM

Please look at this molecule and report its TGI: COc1cc2c(cc1OC)-c1c(c3ccc([N+](=O)[O-])cc3c(=O)n1CCCBr)C2=O
> 100 µM

Identify measured TGI corresponding to COc1cc(Nc2nccc(-c3cnn4ncccc34)n2)cc(OC)c1
0.131 µM

Tell me TGI reported for CCOc1ccc(-n2cc(-c3ccc(N(C)C)cc3)[n+]3c2CCCCC3)cc1
> 90.3 µM

Please give measured TGI of the following entry: CN(Cc1cccc(Cl)c1)c1ccc(CO)c(Cl)c1
23.4 µM

Please look at this molecule and report its TGI: CCOc1ccnc2c(OC)c(C)c3nc4ccccc4nc3c12
> 100 µM

Query TGI for Cc1nc2ccccc2n1Cc1ccc(NC(=S)NC2CCCCC2)cc1
> 100 µM

Quick one: give measured TGI for CCN(CC)[C@@H]1c2cc3c(cc2C(c2cc(OC)c(O)c(OC)c2)C2C(=O)CO[C@@H]21)OCO3 (some centres undefined)
> 100 µM

Provide one value: measured TGI of COc1ccc(-n2cc(-c3ccc(F)cc3)[nH]c2=O)cc1OC
> 100 µM

Tell me measured TGI for Oc1ccccc1/C=N/N1C(=S)N(c2ccccc2)C(=Nc2ccccc2)C1=Nc1ccccc1 please.
18.1 µM

Give TGI for COc1cc(CNC(=O)CCCCCCCCCCSC#N)ccc1O
21.9 µM
